Cited source: patent US20240240209A1

Kindly state cis-α-irone content (percentage of cis-α-irone in the irone mixture) for each of the entries shown.
protocol.notes: Cell lysate reaction of pMT enzymes with psi-ionone, irones quantified by HS-SPME-GCMS
Format: biochemical
condition.summary: cell extracts with psi-ionone
Numbers only, in %.

| molecule | measurement |
| --- | --- |
| pMT3: pMT1 with Y200F S182E (protein, Modified from pMT1, pMT1 with Y200F S182E) MPQEARTPQQQVTADEVGDWYDKFGEVYHLTLGESVHCGLWFPPDAPVPQDMELVTMSSQAQDRYTDYLIETLDPKAGQHLLDIGCGTGRTALKAARQRGIAVTGVAVSKEQIAAANRLAAGHGLTERLTFEVADAMRLPYEDESFDCAWAIESLCHMDRAKALGEAWRVLKPGGDLLVLEEVVTEELTEPETALFETLFAANVPPRLGEFFDIVSGAGFHTLSLKDLSANLAMTMNVFALGVYSRRAEFTERFGAEFVDGLLAGLGSAQETLIRKTRFFMATLRKPAV | 74 |

Please look at the following molecule next.
Value lookup for cis-α-irone content (percentage of cis-α-irone in the irone mixture); key = pMT1: wild-type bifunctional methyltransferase and cyclase TleD from Streptomyces blastmyceticus (protein, listed as Streptomyces blastmyceticus) MPQEARTPQQQVTADEVGDWYDKFGEVYHLTLGESVHCGLWFPPDAPVPQDMELVTMSSQAQDRYTDYLIETLDPKAGQHLLDIGCGTGRTALKAARQRGIAVTGVAVSKEQIAAANRLAAGHGLTERLTFEVADAMRLPYEDESFDCAWAIESLCHMDRAKALGEAWRVLKPGGDLLVLESVVTEELTEPETALFETLYAANVPPRLGEFFDIVSGAGFHTLSLKDLSANLAMTMNVFALGVYSRRAEFTERFGAEFVDGLLAGLGSAQETLIRKTRFFMATLRKPAV
21
